Provenance of the data: PubChem BioAssay AID651642

# Test system: HL-1
# ASSAY_NAME: cardiomyocyte survival under oxidative or metabolic stress – cell-based, panel, H9c2 and HL-1, H2O2, 2-deoxyglucose, ATP luminescence, SAR follow-up (AID 651642)
# MEASUREMENT_CONDITIONS: H9c2/HL-1 cardiomyocyte H2O2 oxidative damage, run 2, with H2O2
MEASURED_ENDPOINT: IC50

Solved entries:
- MOLECULE: "CCOC(=O)c1cccc(NC(=O)c2cc(-c3cc(OC)c(OC)c(OC)c3)nc3cc(Cl)ccc23)c1"
  RESULT: "> 79 µM"
- MOLECULE: "COc1ccc2c(c1OC)C(=O)N1c3ccccc3C(=O)N(Cc3ccncc3)C21 (stereo unspecified)"
  RESULT: "> 79 µM"
- MOLECULE: "COc1ccc2nc(-c3cc(OC)c(OC)c(OC)c3)cc(C(=O)Nc3cccc(C(C)=O)c3)c2c1"
  RESULT: "> 79 µM"
- MOLECULE: "COc1ccc2c(c1OC)C(=O)N1c3ccccc3C(=O)N(Cc3c(Cl)cccc3Cl)C21 (stereo unspecified)"
  RESULT: "> 79 µM"
- MOLECULE: "COc1ccc2c(c1OC)C(=O)N1c3ccccc3C(=O)N(Cc3cccc(F)c3)C21 (stereo unspecified)"
  RESULT: "> 79 µM"
- MOLECULE: "CCOC(=O)c1cccc(NC(=O)CNC(=O)c2cc(-c3cc(OC)c(OC)c(OC)c3)nc3c(Cl)cccc23)c1"
  RESULT: "> 79 µM"
- MOLECULE: "COc1ccc2c(c1OC)C(=O)N1c3ccccc3C(=O)N(Cc3ccccn3)C21 (stereo unspecified)"
  RESULT: "> 79 µM"
- MOLECULE: "COc1cc(-c2cc(C(=O)Nc3cccc(C(=O)O)c3)c3ccccc3n2)cc(OC)c1OC"
  RESULT: "> 79 µM"

**Q:** Given the molecule COc1ccc2c(c1OC)C(=O)N1c3ccccc3C(=O)N(Cc3ccccc3Cl)C21 (stereo unspecified) , what is its reported IC50?
**A:** > 79 µM

**Q:** # lookup: IC50 of COc1ccc2c(c1OC)C(=O)N1c3ccccc3C(=O)N(Cc3ccccc3)C21 (stereo unspecified)
**A:** > 79 µM

**Q:** Which measured IC50 value corresponds to COc1ccc2c(c1OC)C(=O)N1c3ccccc3C(=O)N(Cc3ccc(C)cc3)C21 (stereo unspecified) ?
**A:** > 79 µM
